- Tested on: BV2 cells
- assay_notes: BV2 cell viability, WST-1 assay
- Format: cell-based
- test_parameters: doses of 1, 10, 30 and 50 µM
quantity_measured: Impact on viability of BV2 cells

O=C1/C(=C/c2ccc(O)cc2)Oc2cc(O)ccc21 [Hispidol, hispidol, reference compound] :: cytotoxic effects
C[C@H](NCc1ccc(OCc2cccc(F)c2)cc1)C(N)=O [Safinamide, safinamide, reference compound] :: cytotoxic effects

----------
Sequence of the target: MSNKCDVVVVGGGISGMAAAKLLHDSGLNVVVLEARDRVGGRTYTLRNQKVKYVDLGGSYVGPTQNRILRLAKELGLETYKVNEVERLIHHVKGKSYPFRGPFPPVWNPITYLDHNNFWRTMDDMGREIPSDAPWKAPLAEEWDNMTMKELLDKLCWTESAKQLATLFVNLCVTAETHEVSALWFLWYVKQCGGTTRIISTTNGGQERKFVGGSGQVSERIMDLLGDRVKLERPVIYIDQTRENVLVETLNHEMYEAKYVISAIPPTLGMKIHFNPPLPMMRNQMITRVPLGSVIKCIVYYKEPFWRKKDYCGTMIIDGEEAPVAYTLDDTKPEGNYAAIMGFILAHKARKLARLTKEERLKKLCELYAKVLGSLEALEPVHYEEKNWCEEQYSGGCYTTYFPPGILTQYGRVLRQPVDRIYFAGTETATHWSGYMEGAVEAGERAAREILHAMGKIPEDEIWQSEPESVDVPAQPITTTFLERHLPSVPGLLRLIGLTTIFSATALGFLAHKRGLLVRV
So I've got a bunch of compounds here, and I need their IC50 values.

Entry COc1ccc2c(c1)O/C(=C\c1ccc(O)cc1)C2=O [Compound 1t] ; IC50 = 1.33 µM

The compound COc1cccc(/C=C2\Oc3cc(OC)ccc3C2=O)c1 [Compound 1y] showed IC50 equal to 0.201 µM

Lab note: measured IC50 of O=C1/C(=C/c2cc(O)cc(O)c2)Oc2cc(O)ccc21 [Compound 1g] was > 10 µM

Record summary for COCOc1ccc(/C=C2\Oc3cc(O)ccc3C2=O)cc1 [Compound 1q] : reported IC50 = 0.593 µM

Data point: COc1ccc(/C=C2\Oc3cc(O)ccc3C2=O)c(OC)c1OC [Compound 1p] ; IC50 = 0.171 µM

IC50 reported for this compound COc1ccc(OC)c(/C=C2\Oc3cc(O)ccc3C2=O)c1 [Compound 1m] : > 10 µM

Record summary for COc1ccc2c(c1)O/C(=C\c1ccc(O)cc1O)C2=O [Compound 1v] : reported IC50 = 6.04 µM

Quick note, IC50 for COc1ccc2c(c1)O/C(=C\c1cccc(O)c1O)C2=O [Compound 1u] landed at 2.41 µM

// field: IC50; key: COc1ccc2c(c1)O/C(=C\c1ccccc1O)C2=O [Compound 1r] ; value = > 10 µM

So for COc1ccc2c(c1)O/C(=C\c1ccccc1OC)C2=O [Compound 1x] , the logged IC50 turned out to be 0.593 µM

----------
- system: MAO-B (Homo sapiens, UniProt P27338)
- assay_notes: hMAO-B inhibition, spectrophotometric assay
- test_parameters: IC50 MAO-A divided by IC50 MAO-B
quantity_measured: Selectivity index for inhibition of MAO-B

The compound listed as O=C1/C(=C/c2ccc(O)c(O)c2)Oc2cc(O)ccc21 has a reported Selectivity index for inhibition of MAO-B of 1.93

Reported Selectivity index for inhibition of MAO-B of COCOc1ccc(/C=C2\Oc3cc(O)ccc3C2=O)cc1 : >168

Entry COc1ccccc1/C=C1\Oc2cc(O)ccc2C1=O — recorded Selectivity index for inhibition of MAO-B = >54

// O=C1/C(=C/c2cccc(O)c2O)Oc2cc(O)ccc21 : Selectivity index for inhibition of MAO-B value = >3.34

Recorded Selectivity index for inhibition of MAO-B (compound COc1cccc(/C=C2\Oc3cc(OC)ccc3C2=O)c1 ): >496

----------
- system: MAO-B (Homo sapiens)
- assay_notes: hMAO-B inhibition, spectrophotometric assay
- test_parameters: read-out: MAO-B % Inhibition, single dose concentration of 10 µM
quantity_measured: inhibition at 10 µM (%)
// return numeric value only (unit: %, not printed)

Briefly, inhibition at 10 µM measured for COc1cccc(/C=C2\Oc3cc(OC)ccc3C2=O)c1 : 99.2

Consider O=C1/C(=C/c2ccc(O)c(O)c2)Oc2cc(O)ccc21 . Its measured inhibition at 10 µM is 61.8

The measured inhibition at 10 µM associated with O=C1/C(=C/c2cc(O)ccc2O)Oc2cc(O)ccc21 reads 61.4

O=C1/C(=C/c2cc(O)c(O)c(O)c2)Oc2cc(O)ccc21 yielded inhibition at 10 µM of 47.5

Data point: COc1ccc2c(c1)O/C(=C\c1cccc(O)c1)C2=O ; inhibition at 10 µM = 48.9

The reported value for COCOc1ccc(/C=C2\Oc3cc(O)ccc3C2=O)cc1 in terms of inhibition at 10 µM is 89

The recorded inhibition at 10 µM for entry COc1cc(/C=C2\Oc3cc(O)ccc3C2=O)cc(OC)c1 equals 41.2

Per the record, COc1ccc2c(c1)O/C(=C\c1ccc(O)cc1O)C2=O has inhibition at 10 µM of 66.7

Consider COc1cccc(/C=C2\Oc3cc(O)ccc3C2=O)c1 . Its measured inhibition at 10 µM is 73.2

Briefly, inhibition at 10 µM measured for O=C1/C(=C/c2ccc(O)cc2O)Oc2cc(O)ccc21 : 48.3

Lab book: inhibition at 10 µM of COc1ccc2c(c1)O/C(=C\c1ccc(O)c(O)c1)C2=O noted as 70.5

O=C1/C(=C/c2cccc(O)c2O)Oc2cc(O)ccc21 has a reported inhibition at 10 µM of 58.9

Just so you know, measured inhibition at 10 µM for COc1ccc(/C=C2\Oc3cc(O)ccc3C2=O)cc1 came out at 94.6

The compound listed as COc1ccc(/C=C2\Oc3cc(O)ccc3C2=O)c(OC)c1OC shows inhibition at 10 µM equal to 96.7

The compound identified as COc1ccc(/C=C2\Oc3cc(O)ccc3C2=O)cc1OC registered its inhibition at 10 µM at 42.6

The reported inhibition at 10 µM of the compound COc1ccc2c(c1)O/C(=C\c1ccccc1O)C2=O was 22.5

Sample COc1cccc(/C=C2\Oc3cc(O)ccc3C2=O)c1OC ; inhibition at 10 µM observed: 70.8

Entry COc1ccc2c(c1)O/C(=C\c1ccc(O)cc1)C2=O ; inhibition at 10 µM = 89.6

Value of inhibition at 10 µM reported for the compound O=C1/C(=C/c2cccc(O)c2)Oc2cc(O)ccc21 is 13.6

Entry COc1ccccc1/C=C1\Oc2cc(O)ccc2C1=O ; inhibition at 10 µM = 75.5

Value of measured inhibition at 10 µM for the entry COc1ccc(OC)c(/C=C2\Oc3cc(O)ccc3C2=O)c1 : 46.3

Reported inhibition at 10 µM for O=C1/C(=C/c2cc(O)cc(O)c2)Oc2cc(O)ccc21 was 12.8

In plain terms, COc1ccc2c(c1)O/C(=C\c1cccc(O)c1O)C2=O has a documented inhibition at 10 µM of 65

COc1ccc2c(c1)O/C(=C\c1ccccc1OC)C2=O yielded inhibition at 10 µM of 89.5

----------
- system: recombinant human MAO-A (Homo sapiens)
- Sequence (P21397 1-527): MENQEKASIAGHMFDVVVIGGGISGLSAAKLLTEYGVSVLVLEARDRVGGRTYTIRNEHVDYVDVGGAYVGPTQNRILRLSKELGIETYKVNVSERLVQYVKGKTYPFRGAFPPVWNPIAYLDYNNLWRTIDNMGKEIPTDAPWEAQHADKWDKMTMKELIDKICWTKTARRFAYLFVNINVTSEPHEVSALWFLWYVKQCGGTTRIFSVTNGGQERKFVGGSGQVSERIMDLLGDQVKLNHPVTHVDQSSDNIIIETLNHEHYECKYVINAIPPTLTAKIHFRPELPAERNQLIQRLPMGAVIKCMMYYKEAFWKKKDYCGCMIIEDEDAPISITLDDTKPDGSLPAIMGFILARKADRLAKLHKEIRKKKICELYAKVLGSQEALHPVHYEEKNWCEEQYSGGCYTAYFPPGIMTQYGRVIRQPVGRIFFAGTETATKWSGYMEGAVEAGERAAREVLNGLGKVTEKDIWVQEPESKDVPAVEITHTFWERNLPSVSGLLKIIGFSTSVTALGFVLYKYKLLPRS
- assay_notes: hMAO-A inhibition, spectrophotometric assay
- Assay type: biochemical
- test_parameters: single dose concentration of 10 µM
Binary call on inhibition at 10 µM: met from 60% upward, not met beneath that.

Task: Answer whether inhibition at 10 µM of O=C1/C(=C/c2cccc(O)c2)Oc2cc(O)ccc21 is greater than or equal to 60%.
Result: not met

Task: Determine whether measured inhibition at 10 µM meets or exceeds 60% for O=C1/C(=C/c2cc(O)c(O)c(O)c2)Oc2cc(O)ccc21
Result: not met

Task: Please tell me: is the molecule COc1ccc(/C=C2\Oc3cc(O)ccc3C2=O)cc1 at or over 60% in terms of inhibition at 10 µM?
Result: not met

Task: Say whether O=C1/C(=C/c2ccc(O)cc2)Oc2cc(O)ccc21 [Hispidol, hispidol, reference compound] shows inhibition at 10 µM of 60% or more.
Result: met

Task: Please indicate if the recorded inhibition at 10 µM for O=C1/C(=C/c2ccc(O)c(O)c2)Oc2cc(O)ccc21 meets or exceeds 60%.
Result: met

Data provenance: paper PMC8881063
